# Assayed system: ITK (Homo sapiens, UniProt Q08881)
# Sequence (Q08881 whole entry): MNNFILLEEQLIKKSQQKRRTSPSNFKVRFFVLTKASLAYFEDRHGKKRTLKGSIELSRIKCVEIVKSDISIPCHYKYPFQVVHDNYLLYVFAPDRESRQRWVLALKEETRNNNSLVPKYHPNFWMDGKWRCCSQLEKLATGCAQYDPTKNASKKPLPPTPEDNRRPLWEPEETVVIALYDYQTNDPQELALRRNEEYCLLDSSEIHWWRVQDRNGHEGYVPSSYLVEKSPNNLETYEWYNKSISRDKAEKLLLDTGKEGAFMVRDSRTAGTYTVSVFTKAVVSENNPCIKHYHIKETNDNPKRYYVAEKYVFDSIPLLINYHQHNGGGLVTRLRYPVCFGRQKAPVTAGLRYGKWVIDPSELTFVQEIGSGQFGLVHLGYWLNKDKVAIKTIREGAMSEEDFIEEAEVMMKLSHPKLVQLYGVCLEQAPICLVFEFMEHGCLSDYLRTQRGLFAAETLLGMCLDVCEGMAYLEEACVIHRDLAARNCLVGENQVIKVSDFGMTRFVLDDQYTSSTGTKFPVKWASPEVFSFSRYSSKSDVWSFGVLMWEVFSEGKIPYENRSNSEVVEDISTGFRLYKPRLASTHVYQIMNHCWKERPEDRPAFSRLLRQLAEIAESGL
# Assay info: ITK degradation HiBiT assay
# Format: cell-based
# Set-up: expressed in transfected cells; host or cells: Molt4 (ATCC CRL-1552), monoclonal clone 1C10, engineered to carry the HiBiT tag
# Experimental parameters: C-terminal HiBiT-tagged Molt4 cells, 4 hrs
Readout: DC50 (nM)

[
  {
    "Compound": "CC1(C)CCc2c(-c3cc4ccc(C(=O)N5CCC(CN6CCN(c7cc(C8CCC(=O)NC8=O)ccn7)CC6)CC5)cc4[nH]3)n[nH]c2C1 (centres unmarked)",
    "Readout": "DC50",
    "Unit symbol": "nM",
    "Value comparator": "=",
    "Readout number": 36
  },
  {
    "Compound": "C[C@@]12Cc3[nH]nc(C(=O)Nc4cnn(C5CCN(CC6CCN(c7ccc([C@H]8CCC(=O)NC8=O)cc7F)CC6)CC5)c4)c3C[C@@H]1C2(F)F",
    "Readout": "DC50",
    "Unit symbol": "nM",
    "Value comparator": "=",
    "Readout number": 0.467
  },
  {
    "Compound": "C[C@@]12Cc3[nH]nc(C(=O)Nc4cnn(CC5CCN(CC6CCN(c7ccc(C8CCC(=O)NC8=O)cc7)CC6)CC5)c4)c3C[C@@H]1C2(F)F (mixture of isomers)",
    "Readout": "DC50",
    "Unit symbol": "nM",
    "Value comparator": "=",
    "Readout number": 0.041
  },
  {
    "Compound": "C[C@@]12Cc3[nH]nc(-c4cc5ccc(C(=O)N6CCN(CC7CCN(c8ccc(C9CCC(=O)NC9=O)cc8)CC7)CC6)cc5[nH]4)c3C[C@@H]1C2(F)F (some centres unmarked)",
    "Readout": "DC50",
    "Unit symbol": "nM",
    "Value comparator": "<",
    "Readout number": 0.01
  },
  {
    "Compound": "CN(C(=O)CCC1CCN(c2ccc(C3CCC(=O)NC3=O)cn2)CC1)c1ccc2cc(-c3n[nH]c4c3C[C@@H]3C(F)(F)[C@]3(C)C4)[nH]c2c1 (some centres unmarked)",
    "Readout": "DC50",
    "Unit symbol": "nM",
    "Value comparator": "=",
    "Readout number": 0.01
  }
]
